Parameter: logP. Scope: all listed entries.
# answer = number (no unit)

// below: answered compounds
Sample N=C(N)NCCC[C@@H]1NC(=O)[C@H](CCCCNC(=O)CCCCCNC(=O)CCP(=O)(O)CN2CCN(CP(=O)(O)CCC(=O)NCCCCCC(=O)NCCCC[C@@H]3NC(=O)[C@@H](Cc4ccccc4)NC(=O)[C@H](CC(=O)O)NC(=O)CNC(=O)[C@H](CCCNC(=N)N)NC3=O)CCN(CP(=O)(O)CCC(=O)NCCCCCC(=O)NCCCC[C@@H]3NC(=O)[C@@H](Cc4ccccc4)NC(=O)[C@H](CC(=O)O)NC(=O)CNC(=O)[C@H](CCCNC(=N)N)NC3=O)CC2)NC(=O)[C@@H](Cc2ccccc2)NC(=O)[C@H](CC(=O)O)NC(=O)CNC1=O [Ga-R3HexP9] — what was its logP?
-3.99

Sample CCN=c1cc2oc3cc(NCC)c(C)cc3c(-c3ccccc3C(=O)NCCCCCCNC(=O)CCP(=O)(O)CN3CCN(CP(=O)(O)CCC(=O)NCCCC[C@@H]4NC(=O)[C@@H](Cc5ccccc5)NC(=O)[C@H](CC(=O)O)NC(=O)CNC(=O)[C@H](CCCNC(=N)N)NC4=O)CCN(CP(=O)(O)CCC(=O)NCCCC[C@@H]4NC(=O)[C@@H](Cc5ccccc5)NC(=O)[C@H](CC(=O)O)NC(=O)CNC(=O)[C@H](CCCNC(=N)N)NC4=O)CC3)c-2cc1C [Ga-R2RhoP9] — what was its logP?
-1.27

Sample N=C(N)NCCC[C@@H]1NC(=O)[C@H](CCCCNC(=O)CCP(=O)(O)CN2CCN(CP(=O)(O)CCC(=O)O)CCN(CP(=O)(O)CCC(=O)O)CC2)NC(=O)[C@@H](Cc2ccccc2)NC(=O)[C@H](CC(=O)O)NC(=O)CNC1=O [Ga-R1P9] — what was its logP?
-3.91

Now for the compound whose logP we want.
Sample N=C(N)NCCC[C@@H]1NC(=O)[C@H](CCCCNC(=O)CCP(=O)(O)CN2CCN(CP(=O)(O)CCC(=O)O)CCN(CP(=O)(O)CCC(=O)NCCCC[C@@H]3NC(=O)[C@@H](Cc4ccccc4)NC(=O)[C@H](CC(=O)O)NC(=O)CNC(=O)[C@H](CCCNC(=N)N)NC3=O)CC2)NC(=O)[C@@H](Cc2ccccc2)NC(=O)[C@H](CC(=O)O)NC(=O)CNC1=O [Ga-R2P9] — what was its logP?
-4.12
